# System Name: Recombinant Cat D (Homo sapiens (Human), UniProt P07339)
# Sequence (P07339 65-412): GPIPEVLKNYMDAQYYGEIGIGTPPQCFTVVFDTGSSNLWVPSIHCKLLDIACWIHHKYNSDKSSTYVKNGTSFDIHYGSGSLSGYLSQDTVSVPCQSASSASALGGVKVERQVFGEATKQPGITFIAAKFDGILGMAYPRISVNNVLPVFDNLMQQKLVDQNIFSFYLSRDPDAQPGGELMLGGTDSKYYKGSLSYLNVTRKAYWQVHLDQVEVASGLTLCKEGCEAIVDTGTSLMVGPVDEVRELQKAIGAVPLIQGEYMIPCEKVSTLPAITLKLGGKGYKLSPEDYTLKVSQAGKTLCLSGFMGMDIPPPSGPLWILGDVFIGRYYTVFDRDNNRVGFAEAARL
# Assay Details: In vitro enzymatic Cathepsin D (Cat D) FRET assay
# Format: biochemical
# Condition Notes: read-out: IC50 IP (μM) CatD
Quantity: IC50 (µM)
Give bare numbers, in µM.

Would you mind giving IC50 for every compound in the list below?
1. COC[C@]12C[C@H]1[C@@](C)(c1cc(Nc3nccc4nc(OCc5ncccn5)cnc34)cc(F)c1F)N=C(N)S2
2. C#C[C@H](C)Oc1cnc2c(Nc3ccc(F)c([C@@]4(CF)N=C(N)S[C@@]5(CF)C[C@H]54)c3)nccc2n1
3. C#CCOc1ccc(C(=O)Nc2ccc(F)c([C@@]3(CF)N=C(N)S[C@@]4(c5ocnc5C)C[C@@H]34)c2)nc1
4. C[C@]1(c2cc(Nc3nccc4nc(OCc5ncco5)cnc34)cnc2F)N=C(N)S[C@@]2(CF)C[C@H]21
5. C#CCOc1ccc(C(=O)Nc2ccc(F)c([C@@]3(CF)N=C(N)S[C@@]4(c5ccon5)C[C@@H]34)c2)nc1

349
2690
835
605
482

Data provenance: patent US20160046618A1
